Assay explanation: P. berghei load reduction in hepatocytes – cell-based, HepG2, luciferase luminescence, HepG2 viability, primary screen (AID 624349);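 further: 100% = mean of DMSO negative control wells on the same plate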
Condition: P. berghei liver stage in HepG2, luciferase luminescence, concentration not given here
Calls of active or inactive are those of the source. No stated cut-off is given here; in the data, active means parasite load remaining mostly below about 12% (no sharp cut-off); inactive means mostly above about 10%.
Assign a class; possible classes are active, inactive

{"columns": ["Molecule", "Class assignment"],
 "data": [
  ["N=c1ccn2c(n1)O[C@@H]1C2O[C@H](CO)[C@H]1O (stereo partly drawn)", "inactive"]
]}

Called result for `N.N.O=C(O)CO.[Pt]`
inactive

Fill in: this test's call for `O=C1Nc2ccc(Br)cc2/C1=C/c1cc2c([nH]1)CCCC2` is ___
inactive

How did this test come out for `CCc1[nH]c(-c2ccc(OC)cc2)nc1-c1ccncc1` ?
inactive

I would be grateful if you could indicate the recorded call for `Cn1nc2c3c(cccc31)C(=O)c1ccccc1-2` .
inactive

What was the test verdict on CC(=O)OCC(=O)[C@@]1(O)CC[C@H]2[C@@H]3CCC4=CC(=O)CC[C@]4(C)C3(F)C(=O)C[C@@]21C (stereo partly drawn) ?
inactive

Query: recorded result category for `O=c1[nH]c(O)c2c1c1c3ccccc3nc1n1cncc21` in this test
inactive

Please indicate how the test categorized `CCOC(=O)Oc1c(OC)cc(C(=O)O[C@@H]2C[C@@H]3CN4CCc5c([nH]c6cc(OC)ccc56)[C@H]4C[C@@H]3[C@H](C(=O)OC)[C@H]2OC)cc1OC` .
active

GET /call?item= `Clc1cnccn1` returns the recorded outcome of this test.
inactive

How did this test come out for `Cn1c(O)c(-c2[nH]c3ccccc3c2N=O)c2ccc(Br)cc21` ?
inactive

Tell me the recorded outcome of this test for `O[C@H]1[C@H](O)[C@@H](O)[C@@H]2O[C@@H]2[C@@H]1O` .
inactive

Check the results log: what was the call for NCC1OC(OC2C(N)CC(N)C(OC3OC(CO)C(O)C(N)C3O)C2O)C(N)CC1O (stereo not drawn) ?
inactive

Write down the call the test reported for this molecule. Item: `O=C(Nc1ccncc1)Nc1c(Cl)cc(Cl)cc1Cl`
inactive

Dear colleague, could you share the recorded outcome for CC(C)(C)NCC(O)COc1ccccc1C1CCCC1 (stereo not drawn) when you have a moment?
inactive

Test call for this molecule, please: CC(C)CC(=O)N[C@H](C(=O)NC(C(=O)NC(CC(C)C)[C@@H](O)CC(=O)N[C@@H](C)C(=O)N[C@@H](CC(C)C)[C@@H](O)CC(=O)O)C(C)C)C(C)C (stereo partly drawn)
inactive

Dear colleague, could you share the recorded outcome for `O=C1NC(=O)C(c2cn(CCCn3ccnc3)c3ccccc23)=C1Nc1ccccc1` when you have a moment?
inactive

Which outcome was assigned to `COc1cc(N)c(Cl)cc1C(=O)N[C@H]1CCN(CCCOc2ccc(F)cc2)C[C@H]1OC` in this test?
inactive

Call for entry CC1(C)O[C@@H]2CC3C4CCC5=CC(=O)CCC5(C)C4(F)C(O)CC3(C)[C@]2(C(=O)CCl)O1 (stereo partly drawn) :
inactive

###

Assay explanation: drug combination growth inhibition, ovarian cancer – cell-based, oncology-focused library, rucaparib conditional, profiling panel (AID 1508598)
Condition: patient-derived ovarian cancer cells, CellTiter-Glo viability, 144 h; at 0.00122 µM; OCI-P5x cells; without rucaparib; stronger effect = lower value
Quantity measured: viability (%)
Give the number; % is assumed, so skip it.

// worked examples, viability included
{"columns": ["Molecule", "Unit label", "viability"],
 "data": [
  ["NC(=O)CCCSc1nc(N)nc(-c2c(Cl)cc3c4c(cccc24)COC3)n1", "%", 96.2],
  ["COc1cc(=C2C=c3ccccc3=N2)[nH]/c1=C\\c1[nH]c(C)cc1C", "%", 19.5],
  ["CC(C)C[C@H](NP(=O)(O)O[C@@H]1O[C@@H](C)[C@H](O)[C@@H](O)[C@H]1O)C(=O)N[C@@H](Cc1c[nH]c2ccccc12)C(=O)O", "%", 103],
  ["CC(C)(C)C(=O)Nc1ccc2c(c1)C(=O)C(=O)c1ccccc1-2", "%", 91.1],
  ["COc1cccc2c1C(=O)c1c(O)c3c(c(O)c1C2=O)C[C@@](O)(C(=O)CO)C[C@H]3O[C@H]1C[C@H](N)[C@@H](O)[C@H](C)O1", "%", 106],
  ["Cc1cc(NC(=O)c2cccc(NC(=O)/C=C/CN(C)C)c2)ccc1Nc1nccc(-c2cccnc2)n1", "%", 113]
]}

Now for a further molecule.
Let me know recorded viability for `CC(C)NCCCn1c(Sc2cc3c(cc2I)OCO3)nc2c(N)ncnc21` , thanks.
94.3
